# test.system: recombinant human NGF protein (human, UniProt P01138 122-241)
# Sequence (P01138 122-241 limits assumed): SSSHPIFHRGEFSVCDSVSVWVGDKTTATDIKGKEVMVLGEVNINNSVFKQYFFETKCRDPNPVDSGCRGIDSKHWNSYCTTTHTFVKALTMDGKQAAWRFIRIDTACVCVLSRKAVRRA
# experiment.summary: cell-based or functional assay
IC50, inhibition of NGF-induced proliferation of TF-1 cell: recorded values
Give just the number in nM; leave the unit off.

Consider the worked cases shown below.
binder: humanized anti-NGF antibody 43E5-05 (antibody, V domains shown, Humanized antibody expressed in CHO cells) VH: QVQLVQSGAEVKKPGSSVKVSCKASGYTFTDYEMHWVRQAPGQGLEWMGAIDPETGGTAYNQKFKGRVTITADKSTSTAYMELSSLRSEDTAVYYCRRGANLNHYGNDEGSYWGQGTLVTVSS VL: DVVMTQSPLSLPVTLGQPASISCKSSQSLLHSVGKTYLNWLQQRPGQSPRRLIYLVSKLDSGVPDRFSGSGSGTDFTLKISRVEAEDVGVYFCWQGTHLPQTFGGGTKVEIK
unit.spec: nM
assay.value: 0.701

binder: humanized anti-NGF antibody 138E12-11 (antibody, V domains shown) VH: QVQLQESGPGLVKPSETLSLTCTVSGFSLTGYGVNWIRQPPGKGLEWLGMIWFEGSTDYQSALKSRLTISKDNSKSQVSLKLSSVTAADTAVYYCAREGYYYGTTYYFDYWGQGTTVTVSS VL: DIQMTQSPSSLSASVGDRVTITCRASQDISNYLNWYQQKPGKAPKLLIYYTSRLHSGVPSRFSGSGSGTDYTLTISSLQPEDFATYFCQQGNTLPRTFGGGTKVEIK
unit.spec: nM
assay.value: 0.062

Query block: IC50, inhibition of NGF-induced proliferation of TF-1 cell for humanized anti-NGF antibody 43E5-01 (antibody, V domains shown, Humanized antibody expressed in CHO cells) VH: QVQLVQSGAEVKKPGASVKVSCKASGYTFTDYEMHWVRQAPGQGLEWMGAIDPETGGTAYNQKFKGRVTMTADKSISTAYMELSRLRSDDTAVYYCRRGANLNHYGNDEGSYWGQGTLVTVSS VL: DVVMTQSPLSLPVTLGQPASISCKSSQSLLHSVGKTYLNWLQQRPGQSPRRLIYLVSKLDSGVPDRFSGSGSGTDFTLKISRVEAEDVGVYFCWQGTHLPQTFGGGTKVEIK ?
Result block: 0.582
